Source listed as ChEMBL document CHEMBL3988442.

Consider the following compounds; for each one, report its Percent Effect.
target: Aspartate--tRNA(Asp/Asn) ligase (Mycobacterium tuberculosis (strain ATCC 25618 / H37Rv)); experiment: Assay for Asp RNA synthetase-1 from Mycobacterium tuberculosis; format: functional; parameters: scale not given: in the data most compounds retested in dose-response had high values; conditions: 30 µM
Give bare numbers, in %.

COC(=O)CCNC(=O)c1ccoc1CN1c2ccccc2CC1C (centres undefined); 0.0912
Cn1cc(CN2CCn3c(CNC(=O)c4cccn4C)cnc3C2)cn1; 12.8
CC(=O)NCCc1ccc(C(=O)N2CCCC2c2cnn(C)c2)cc1 (centres undefined); 3.04

Give measured Percent Effect for every item shown.
1. COc1ccnc(N2CCN(C(=O)c3csc(C(C)C)n3)CC2)n1
2. COCCN(Cc1ccoc1)C(=O)c1c(F)cccc1Cl
3. NC(=O)C1CCN(Cn2nc(-c3ccc(F)cc3)oc2=O)CC1

Return:
1: -5.15; 2: -3.31; 3: 4.96

Give measured Percent Effect for every item shown.
1. CN(Cc1ccco1)Cc1cncc2c1CCN(c1ncccn1)C2
2. Cc1cnn(CC2CCCN2C(=O)CCc2ccsc2)c1 (centres undefined)

Return:
0.874
-3.37

Give measured Percent Effect for every item shown.
1. CN(C)C(=O)[C@@H]1CCO[C@@H]2CCN(Cc3ccccc3)C[C@@H]21
2. N#Cc1ccc(NCCNc2ccc(C(F)(F)F)cn2)nc1
3. CC(C)c1nc(CN(C)C2CCN(CCNS(C)(=O)=O)C2)no1 (centres undefined)
4. Cc1noc(C2CCN(Cc3cc(=O)n(C)c(=O)n3C)CC2)n1
5. Cc1cnc(N2CCn3cc(CNC(=O)CC4CC4)nc3C2)nc1
6. CCn1cc2c(n1)CN(CC1CC1)CC2COCC1CC1 (centres undefined)
7. Fc1cnc(N2CCn3cc(CNc4ccccn4)nc3C2)nc1
8. Cc1cccnc1NC(=O)CSc1ccc2c(c1)OCCO2

Return:
[2.24, -3.59, 0.0463, -4.37, 2.93, -2.72, 1.02, 0.668]

Give measured Percent Effect for every item shown.
1. CC1CCN(Cc2cnc(S(=O)(=O)CC3CC3)n2CC2CCCO2)CC1 (centres undefined)
2. CCC1c2ccsc2CCN1C(=O)NCc1cc[nH]n1 (centres undefined)

Return:
1: -2.12; 2: -1.83

Give measured Percent Effect for every item shown.
1. O=C(NCCCN1CCOCC1)c1cc(-c2ccc3c(c2)CCO3)n[nH]1
2. Cc1nsc(N2CCCN(c3nc(C4CC4)ns3)CC2)n1
3. O=C1CCSCC(C(=O)N2CCOCC2)N1 (centres undefined)
4. Cc1nc(N2CCN(C)CC2)ncc1C(=O)N1CCC(O)(CO)CC1
5. CS(=O)(=O)NCc1cn2c(n1)CN(C(=O)c1ccc[nH]1)CC2

Return:
[-2.27, 0.575, 1.64, 3.4, 1.81]

Enquiry: Which measured Percent Effect value corresponds to `CN(CC(=O)N1CCC(Oc2ccccc2)CC1)c1cnccn1` ?
Return: 0.175
